Data provenance is patent US20260124146A1.

experiment: solubility assessment of micronized tolcapone in buffers (HPLC assay and visual observation); assay type: physicochemical; conditions: buffer, pH 6.8, aqueous buffer, thermodynamic from solid, pH 6.8, 2 Hour; read-out: Mean Assay (solubility by HPLC)
TEST_READOUT: solubility at 2 h (µg/mL)
Report the figure in µg/mL without appending any unit label.

Task item: Give reported solubility at 2 h value for Cc1ccc(C(=O)c2cc(O)c(O)c([N+](=O)[O-])c2)cc1 [tolcapone]
Reply: 1030

---

assay: solubility assessment of micronized tolcapone in buffers (HPLC assay and visual observation); format: physicochemical; conditions: buffer, pH 5.5, aqueous buffer, thermodynamic from solid, pH 5.5, 1 Hour; read-out: Mean Assay (solubility by HPLC)
TEST_READOUT: solubility at 1 h (µg/mL)
Report the figure in µg/mL without appending any unit label.

Task item: Give reported solubility at 1 h value for Cc1ccc(C(=O)c2cc(O)c(O)c([N+](=O)[O-])c2)cc1
Reply: 248

---

assay: solubility assessment of micronized tolcapone in buffers (HPLC assay and visual observation); assay type: physicochemical; conditions: buffer, pH 7.4, aqueous buffer, thermodynamic from solid, pH 7.4, 2 Hour; read-out: Mean Assay (solubility by HPLC)
TEST_READOUT: solubility at 2 h (µg/mL)
Report the figure in µg/mL without appending any unit label.

Task item: Give reported solubility at 2 h value for Cc1ccc(C(=O)c2cc(O)c(O)c([N+](=O)[O-])c2)cc1
Reply: 501

---

Assay: solubility assessment of micronized tolcapone in buffers (HPLC assay and visual observation)
Format: physicochemical
Conditions: buffer, pH 4.5, aqueous buffer, thermodynamic from solid, pH 4.5, 2 Hour; read-out: Mean Assay (solubility by HPLC)
Method: Two aliquots of each sample were taken at 1 and 2 hour time points. One aliquot was used for Assay and Related Substances analysis by reverse phase HPLC and the other aliquot was used to obtain microscopic images using 5.5× magnification, polarised and non-polarised light. In addition, representative photograph of each n=1 sample at 1 hour time point were taken for information. pH of each sample was measured at 2 hour time point.
TEST_READOUT: solubility at 2 h (mg/mL)
Report the figure in mg/mL without appending any unit label.

Task item: Give reported solubility at 2 h value for Cc1ccc(C(=O)c2cc(O)c(O)c([N+](=O)[O-])c2)cc1
Reply: 0.051

---

test: solubility assessment of micronized tolcapone in buffers (HPLC assay and visual observation); type: physicochemical; conditions: buffer, pH 6.8, aqueous buffer, thermodynamic from solid, pH 6.8, 2 Hour, replicates N=1, N=2; read-out: Assay (solubility by HPLC)
TEST_READOUT: solubility at 2 h (µg/mL)
Report the figure in µg/mL without appending any unit label.

Task item: Give reported solubility at 2 h value for Cc1ccc(C(=O)c2cc(O)c(O)c([N+](=O)[O-])c2)cc1 [tolcapone]
Reply: 905

---

test: solubility assessment of micronized tolcapone in buffers (HPLC assay and visual observation); format: physicochemical; conditions: buffer, pH 5.5, aqueous buffer, thermodynamic from solid, pH 5.5, 2 Hour; read-out: Mean Assay (solubility by HPLC)
TEST_READOUT: solubility at 2 h (µg/mL)
Report the figure in µg/mL without appending any unit label.

Task item: Give reported solubility at 2 h value for Cc1ccc(C(=O)c2cc(O)c(O)c([N+](=O)[O-])c2)cc1
Reply: 275

---

Assay: solubility assessment of micronized tolcapone in buffers (HPLC assay and visual observation)
Assay type: physicochemical
Conditions: buffer, pH 5.5, aqueous buffer, thermodynamic from solid, pH 5.5, 1 Hour, replicates N=1, N=2; read-out: Assay (solubility by HPLC)
Experimental: Two aliquots of each sample were taken at 1 and 2 hour time points. One aliquot was used for Assay and Related Substances analysis by reverse phase HPLC and the other aliquot was used to obtain microscopic images using 5.5× magnification, polarised and non-polarised light. In addition, representative photograph of each n=1 sample at 1 hour time point were taken for information. pH of each sample was measured at 2 hour time point.
TEST_READOUT: solubility at 1 h

Task item: Give reported solubility at 1 h value for Cc1ccc(C(=O)c2cc(O)c(O)c([N+](=O)[O-])c2)cc1 [tolcapone]
Reply: 258 µg/mL
